METRIC NAME: melting point

The examples below pair each entry with its known result.
O=C(Nc1ccc(Oc2nncc3ccccc23)cc1)Nc1ccc(Cl)c(C(F)(F)F)c1: 158 to 160 °C
Cc1nnc(Oc2ccc(NC(=O)Nc3ccccc3)cc2)c2ccccc12: 174 to 176 °C
O=C(Nc1ccc(Nc2nncc3ccccc23)cc1)Nc1ccc(Cl)c(C(F)(F)F)c1: 288 to 291 °C

Read the entry O=C(Nc1ccc(Nc2nnc(Cl)c3ccccc23)cc1)Nc1ccc(Cl)c(C(F)(F)F)c1 [Compound 12c] and write its reported melting point.
187 to 189 °C

Give melting point for Cc1cccc(NCc2nnc(Nc3ccc(Cl)cc3)c3ccccc23)c1 [Compound 16c]
130 to 132 °C

Supply melting point value. Item: Cc1nnc(Nc2ccc(NC(=O)Nc3ccc(Cl)c(C(F)(F)F)c3)cc2)c2ccccc12
258 to 260 °C

For Clc1ccc(Nc2nnc(CNc3cccc(Cl)c3)c3ccccc23)cc1 [Compound 16b] , write its melting point.
164 to 166 °C

Assign melting point to the following record: c1ccc(N2CCN(c3nncc4ccccc34)CC2)cc1
242 to 244 °C

Read the entry O=C(Nc1ccc(Nc2nncc3ccccc23)cc1)c1ccccc1 and write its reported melting point.
142 to 144 °C

Item Fc1ccccc1N1CCN(c2nncc3ccccc23)CC1 : provide melting point
88 to 90 °C

In one line, give reported melting point of the entry O=C(Nc1ccccc1)Nc1ccc(Oc2nncc3ccccc23)cc1 .
180 to 182 °C

Quickly give me recorded melting point for Cc1cccc(OCc2nnc(Nc3ccc(Cl)cc3)c3ccccc23)c1 [Compound 17b]
193 to 195 °C

Tell me melting point reported for O=C(Nc1ccccc1)Nc1ccc(Nc2nnc(Cl)c3ccccc23)cc1 [Compound 12a]
225 to 227 °C

Given Cc1nnc(Nc2ccc(NC(=O)Nc3ccccc3)cc2)c2ccccc12 , respond with its melting point.
284 to 286 °C

Return value of melting point for input O=C(Nc1ccccc1)Nc1ccc(Nc2nncc3ccccc23)cc1 , no commentary.
145 to 147 °C

Provide only the value of recorded melting point for Cc1nnc(N2CCN(C(=O)c3ccco3)CC2)c2ccccc12
90 to 92 °C

Quickly give me recorded melting point for Cc1nnc(Nc2ccc(NC(=O)c3ccccc3)cc2)c2ccccc12
283 to 285 °C

----------
tested on: COLO 205; test: NCI 60 cell panel SRB screen; assay type: cell-based; conditions: Homo sapiens; COLO 205, single dose 10 μM; read-out: percent cell growth promotion
METRIC NAME: activity at 10 µM (%)
Record the value in %, omitting the unit from your answer.

Solved entries (count: 5):
O=C(Nc1ccc(Cl)cc1)Nc1ccc(Oc2nnc(Cl)c3ccccc23)cc1 [Compound 13b]: 106
c1ccc(N2CCN(c3nncc4ccccc34)CC2)nc1: 106
Clc1ccc(Nc2nnc(COc3ccccc3)c3ccccc23)cc1 [Compound 17a]: -5.75
CCOC(=O)N1CCN(c2nncc3ccccc23)CC1: 109
Cc1nnc(N2CCN(c3ccccc3F)CC2)c2ccccc12: 120

Please examine the following record next.
Please report activity at 10 µM for the following compound: Cc1nnc(N2CCN(c3ccccc3)CC2)c2ccccc12
97.7

----------
Property: GI50; scope: individual molecules
test system: T-47D; experiment: NCI 60 cell panel SRB screen; type: cell-based; details: Homo sapiens, T47D
Form entry: value (µM) — number only.

Clc1ccc(Nc2nnc(CNc3ccccc3)c3ccccc23)cc1 [Compound 16a]: 1.17
Cc1nnc(Nc2ccc(NC(=O)Nc3ccc(Cl)cc3)cc2)c2ccccc12: 2.06
O=C(Nc1ccc(Cl)cc1)Nc1ccc(Nc2nncc3ccccc23)cc1: 1.03
O=C(Nc1ccccc1)Nc1ccc(Oc2nnc(Cl)c3ccccc23)cc1 [Compound 13a]: 0.63
Clc1ccc(Nc2nnc(COc3ccccc3)c3ccccc23)cc1 [Compound 17a]: 0.88
COc1cccc(NCc2nnc(Nc3ccc(Cl)cc3)c3ccccc23)c1 [Compound 16d]: 0.64

Now consider the entry below.
Give the value of GI50 reported for the following: O=C(Nc1ccc(Cl)cc1)Nc1ccc(Oc2nncc3ccccc23)cc1
0.24

----------
The following compounds are listed with their measured GI50 values.
system: MDA-MB 231/ATCC; assay: NCI 60 cell panel SRB screen; type: cell-based; conditions: Homo sapiens, MDA-MB-231
# unit: µM | format: bare number

Kindly indicate its recorded GI50. Item: COc1cccc(NCc2nnc(Nc3ccc(Cl)cc3)c3ccccc23)c1 [Compound 16d]
1.32

Query GI50 for O=C(Nc1ccc(Cl)cc1)Nc1ccc(Nc2nncc3ccccc23)cc1 [Compound 6b]
3.4

Please report GI50 for the following compound: O=C(Nc1ccccc1)Nc1ccc(Oc2nnc(Cl)c3ccccc23)cc1 [Compound 13a]
4.76

Identify the reported GI50 for the following entry. Clc1ccc(Nc2nnc(COc3ccccc3)c3ccccc23)cc1 [Compound 17a]
1.28

Entry Cc1nnc(Nc2ccc(NC(=O)Nc3ccc(Cl)cc3)cc2)c2ccccc12 [Compound 6e] needs its GI50 filled in; supply it.
2.38

Give the value of GI50 reported for the following: O=C(Nc1ccc(Cl)cc1)Nc1ccc(Oc2nncc3ccccc23)cc1 [Compound 7b]
0.39

Please list GI50 recorded for the compound Clc1ccc(Nc2nnc(CNc3ccccc3)c3ccccc23)cc1 [Compound 16a]
1.95

----------
test system: CCRF-CEM; assay: NCI 60 cell panel SRB screen; type: cell-based, human; conditions: Homo sapiens, single dose 10 μM, read-out: percent cell growth promotion
Entries and their measured activity at 10 µM follow.
# value in %; strip the unit string

Reference set (5 entries):
O=C(Nc1ccc(Cl)cc1)Nc1ccc(Nc2nncc3ccccc23)cc1: 13.1
COc1cccc(NCc2nnc(Nc3ccc(Cl)cc3)c3ccccc23)c1 [Compound 16d]: -4.42
O=C(Nc1ccc(Cl)cc1)Nc1ccc(Oc2nncc3ccccc23)cc1: 8.7
c1ccc(N2CCN(c3nncc4ccccc34)CC2)nc1: 102
Clc1ccc(Nc2nnc(COc3ccccc3)c3ccccc23)cc1 [Compound 17a]: 1.06

Give the reported value of activity at 10 µM for this record: O=C(Nc1ccc(Cl)cc1)Nc1ccc(Oc2nnc(Cl)c3ccccc23)cc1 [Compound 13b]
66

Provide only the value of recorded activity at 10 µM for O=C(Nc1ccc(Nc2nncc3ccccc23)cc1)c1ccc(Cl)cc1
103

----------
tested on: CAKI-1; assay: NCI 60 cell panel SRB screen; assay type: cell-based, human; conditions: Homo sapiens; CAKI-1, 5 log dose, 48 h; read-out: LC50 (the source's name)
METRIC NAME: CC50 (µM)
# unit: µM | format: bare number

Cc1nnc(Nc2ccc(NC(=O)Nc3ccc(Cl)cc3)cc2)c2ccccc12: 43.6
O=C(Nc1ccc(Cl)cc1)Nc1ccc(Nc2nncc3ccccc23)cc1: 88

Specify CC50 for O=C(Nc1ccc(Cl)cc1)Nc1ccc(Oc2nncc3ccccc23)cc1 and stop.
43.9

----------
tested on: SN12C
METRIC NAME: GI50 (µM)
Give just the number in µM; leave the unit off.

// solved cases for GI50 follow
O=C(Nc1ccccc1)Nc1ccc(Oc2nnc(Cl)c3ccccc23)cc1 [Compound 13a]: 6.72
O=C(Nc1ccc(Cl)cc1)Nc1ccc(Nc2nncc3ccccc23)cc1: 4.58
COc1cccc(NCc2nnc(Nc3ccc(Cl)cc3)c3ccccc23)c1 [Compound 16d]: 2.52
Clc1ccc(Nc2nnc(COc3ccccc3)c3ccccc23)cc1 [Compound 17a]: 2.12
Cc1nnc(Nc2ccc(NC(=O)Nc3ccc(Cl)cc3)cc2)c2ccccc12: 2.86

Find the measured GI50 of O=C(Nc1ccc(Cl)cc1)Nc1ccc(Oc2nncc3ccccc23)cc1 and report it.
1.03

Kindly indicate its recorded GI50. Item: Clc1ccc(Nc2nnc(CNc3ccccc3)c3ccccc23)cc1 [Compound 16a]
3.95

----------
Items are presented alongside their recorded activity at 10 µM.
tested on: M14; assay: NCI 60 cell panel SRB screen; assay type: cell-based; settings: Homo sapiens, M14, read-out: percent cell growth promotion
// return numeric value only (unit: %, not printed)

Some solved entries appear below for comparison.
O=C(Nc1ccc(Cl)cc1)Nc1ccc(Oc2nncc3ccccc23)cc1: 7.3
O=C(Nc1ccccc1)Nc1ccc(Oc2nnc(Cl)c3ccccc23)cc1 [Compound 13a]: 46.2
Cc1nnc(Oc2ccc(NC(=O)Nc3ccc(Cl)cc3)cc2)c2ccccc12: 79.4
Cc1nnc(Nc2ccc(NC(=O)Nc3ccc(Cl)cc3)cc2)c2ccccc12: 37.3
Cc1nnc(N2CCN(c3ccccc3)CC2)c2ccccc12: 94.8
O=C(Nc1ccc(Cl)cc1)Nc1ccc(Oc2nnc(Cl)c3ccccc23)cc1 [Compound 13b]: 103

Report activity at 10 µM for CCOC(=O)N1CCN(c2nnc(C)c3ccccc23)CC1
104

Please give the documented activity at 10 µM of c1ccc(N2CCN(c3nncc4ccccc34)CC2)nc1
102

Tell me activity at 10 µM reported for CCOC(=O)N1CCN(c2nncc3ccccc23)CC1
110

Supply activity at 10 µM value. Item: COc1cccc(NCc2nnc(Nc3ccc(Cl)cc3)c3ccccc23)c1 [Compound 16d]
-15.7

Specify measured activity at 10 µM for Clc1ccc(Nc2nnc(CNc3ccccc3)c3ccccc23)cc1 [Compound 16a] .
5.8

Retrieve activity at 10 µM measured for Clc1ccc(Nc2nnc(COc3ccccc3)c3ccccc23)cc1 [Compound 17a] and print it.
-9.99

Find the measured activity at 10 µM of Cc1nnc(Nc2ccc(NC(=O)c3ccc(Cl)cc3)cc2)c2ccccc12 and report it.
97.1

Determine its reported activity at 10 µM: Cc1nnc(N2CCN(c3ccccc3F)CC2)c2ccccc12
95

Report measured activity at 10 µM; entry is Cc1nnc(N2CCN(c3ccccn3)CC2)c2ccccc12
98.6

Please give the documented activity at 10 µM of O=C(Nc1ccc(Nc2nncc3ccccc23)cc1)c1ccc(Cl)cc1
99.7

Look up and report measured activity at 10 µM for this entry: O=C(Nc1ccc(Cl)cc1)Nc1ccc(Nc2nncc3ccccc23)cc1
19.3
